assayComment: Volume of distribution at steady state in Sprague-Dawley rat at 3 mg/kg, iv
Format: ADME, organism-based
Design: dose 3 mg/kg, route intravenous
conditionSet: in vivo, read-out: Vdss

inputSmiles | Vd, L/kg
COC(=O)N[C@H](C(=O)N1C[C@@H](C)C[C@H]1c1ncc(-c2ccc(-c3ccc(-c4cc5[nH]c([C@@H]6C[C@H](C)CN6C(=O)[C@@H](NC(=O)OC)C(C)C)nc5s4)s3)cc2)[nH]1)C(C)C | 3.8

* * *

assayComment: AUC (0 to 8 hrs) in Sprague-Dawley rat at 3 mg/kg, po
Assay type: ADME, organism-based
Design: time < 8 hr, dose 3 mg/kg, route oral
conditionSet: plasma

inputSmiles | AUC(0-t) at 8 h / ng·h/mL
COC(=O)N[C@H](C(=O)N1C[C@@H](C)C[C@H]1c1ncc(-c2ccc(-c3ccc(-c4cc5[nH]c([C@@H]6C[C@H](C)CN6C(=O)[C@@H](NC(=O)OC)C(C)C)nc5s4)s3)cc2)[nH]1)C(C)C | 440
